- Subject of test: STK36 (human)
- Method description: KINOMEscan competition binding
- Details: compound 10.0 µM
Assay metric: kinase still bound, per cent of control (%)

Worked cases, answers included:
{"Smiles structure": "Cc1cnc(-c2cnc(NCCNc3ccc(C#N)cn3)nc2-c2ccc(Cl)cc2Cl)[nH]1", "Assay metric": "kinase still bound, per cent of control", "Readout units": "%", "Readout value": 42}
{"Smiles structure": "COc1ccc(CNC(=O)Nc2ncc([N+](=O)[O-])s2)cc1", "Assay metric": "kinase still bound, per cent of control", "Readout units": "%", "Readout value": 100}

[A] Cn1cc(C2=C(c3ccc(Cl)cc3Cl)C(=O)NC2=O)c2ccccc21
[B] O=C1Nc2cc(Br)ccc2/C1=C1/Nc2ccccc2/C1=N\O
Lab notebook, comparison: A versus B , higher kinase still bound, per cent of control goes to which? Answer by stating the label of the chosen item. A
(A: 100%, B: 53%)
